Taken from patent US10844049B2.

EXPERIMENTAL_TARGET: GLP1R (Homo sapiens, UniProt P43220)
Sequence (P43220 24-463): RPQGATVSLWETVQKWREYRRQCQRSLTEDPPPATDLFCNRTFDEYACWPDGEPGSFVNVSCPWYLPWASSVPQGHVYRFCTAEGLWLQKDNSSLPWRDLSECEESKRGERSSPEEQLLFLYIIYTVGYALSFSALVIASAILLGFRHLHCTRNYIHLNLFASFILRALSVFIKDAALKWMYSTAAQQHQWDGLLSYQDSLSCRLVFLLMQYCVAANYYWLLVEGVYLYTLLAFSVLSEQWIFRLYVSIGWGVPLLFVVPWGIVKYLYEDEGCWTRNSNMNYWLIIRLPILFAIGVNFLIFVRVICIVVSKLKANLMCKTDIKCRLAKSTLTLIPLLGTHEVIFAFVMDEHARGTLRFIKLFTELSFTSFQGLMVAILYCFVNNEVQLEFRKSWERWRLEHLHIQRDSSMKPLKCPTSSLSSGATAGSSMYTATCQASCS
TEST_PROTOCOL: GLP1R cAMP HTRF assay, HEK293/GLP-1R/CRE/Luc (HEK293T cells)
Type: cell-based
TEST_PARAMETERS: read-out: EC50
Items are presented alongside their recorded EC50.
EXPERIMENTAL_READOUT: EC50

O=C(O)c1ccc2nc(CN3CC=C(c4cccc(OCc5ccc(C(F)(F)F)cc5)n4)CC3)n(C[C@@H]3CCO3)c2c1	≤ 15 nM
N#Cc1ccc(CNc2nc(C3=CCN(Cc4nc5ccc(C(=O)O)cc5n4C[C@@H]4CCO4)CC3)c(F)cc2F)c(F)c1	≤ 15 nM
O=C(O)c1ccc2nc(CN3CC=C(c4cccc(OCc5ccc(C#CC6CC6)cc5F)c4)CC3)n(C[C@@H]3CCO3)c2c1	≤ 150 nM
CS(=O)(=O)NC(=O)c1ccc2nc(CN3CC=C(c4cccc(OCc5ccc(Cl)cc5F)n4)CC3)n(C[C@@H]3CCO3)c2c1	≤ 15 nM
O=C(O)c1ccc2nc(CN3CC=C(c4cccc(OCc5ccc(F)c(F)c5)n4)CC3)n(C[C@@H]3CCO3)c2c1	≤ 15 nM
O=C(O)c1ccc2nc(CN3CC=C(c4cccc(OCc5ccc(F)cc5Cl)n4)CC3)n(C[C@@H]3CCO3)c2c1	≤ 15 nM
O=C(O)c1ccc2nc(CN3CC=C(c4cccc(OCc5ccncc5)n4)CC3)n(C[C@@H]3CCO3)c2c1	≤ 150 nM
Fc1cc(Cl)ccc1COc1cccc(C2=CCN(Cc3nc4ccc(-c5nnn[nH]5)cc4n3C[C@@H]3CCO3)CC2)n1	≤ 15 nM
O=C(O)c1ccc2nc(CN3CC=C(c4nc(OCc5ccc(F)cc5F)c(F)cc4F)CC3)n(C[C@@H]3CCO3)c2c1	≤ 15 nM
O=C(O)c1ccc2nc(CN3CCN(c4cccc(OCc5ccc(Cl)cc5F)n4)C(=O)C3)n(C[C@@H]3CCO3)c2c1	≤ 15 nM
O=C(O)c1ccc2nc(CN3CCCN(c4cccc(OCc5ccc(Cl)cc5F)n4)C(=O)C3)n(C[C@@H]3CCO3)c2c1	> 1000 nM
O=C(O)c1ccc2nc(CN3CC=C(c4cccc(OCc5ncc(Cl)cn5)n4)CC3)n(C[C@@H]3CCO3)c2c1	≤ 150 nM
O=C(O)c1ccc2nc(CN3CC=C(c4ncc(F)c(OCc5ccc(Cl)cc5F)n4)CC3)n(C[C@@H]3CCO3)c2c1	≤ 15 nM
O=C(O)c1ccc2nc(CN3CC=C(c4cccc(OCc5ccc(F)cc5F)n4)CC3)n(C[C@@H]3CCO3)c2c1	≤ 15 nM

* * *

EXPERIMENTAL_TARGET: GLP1R (Homo sapiens)
TEST_PROTOCOL: GLP1R cAMP HTRF assay, HEK293/GLP-1R/CRE/Luc (HEK293T cells)
Type: cell-based
TEST_PARAMETERS: read-out: EC50
pEC50: −log10 of the molar value.
Each record here notes measured pEC50.
EXPERIMENTAL_READOUT: pEC50

O=C(O)c1ccc2nc(CN3CC=C(c4nc(OCc5ccc(C(F)(F)F)nc5)c(F)cc4F)CC3)n(C[C@@H]3CCO3)c2c1	≥ 7.82
O=C(O)c1ccc2nc(CN3CCN(c4cccc(OCc5ccc(Cl)cc5F)c4)CC3)n(C[C@@H]3CCO3)c2c1	≥ 7.82
CC#Cc1ccc(COc2cccc(C3=CCN(Cc4nc5ccc(C(=O)O)cc5n4C[C@@H]4CCO4)CC3)n2)c(F)c1	≥ 7.82
O=C(O)c1ccc2nc(CC3CCN(c4cccc(OCc5ccc(Cl)cn5)n4)CC3)n(C[C@@H]3CCO3)c2c1F	≥ 6.82
O=C(O)c1ccc2nc(CN3CC=C(c4cccc(OCc5ccccc5Cl)n4)CC3)n(C[C@@H]3CCO3)c2c1	≥ 7.82
Cc1cc2nc(CN3CC=C(c4cccc(OCc5ccc(Cl)cc5)n4)CC3)n(C[C@@H]3CCO3)c2cc1C(=O)O	≥ 7.82
Cc1ccc(C2=CCN(Cc3nc4ccc(C(=O)O)cc4n3C[C@@H]3CCO3)CC2)cc1OCc1ccc(Cl)cc1F	≥ 6.82
